Settings: 298.15 K; 101 kPa; Liquid
Use met when the recorded mass density is no lower than 1000 kg/m3; use not met when it is lower.

Please review the entries below; each comes with its answer.
CC(O)CO (stereo not given)    met
OCCCO    met
CC(C)O    not met
OCC(O)CO    met

In plain terms: is recorded mass density at least 1000 kg/m3 for CCCO ?
not met

All figures here come from the NIST ThermoML archive (doi:10.1021/je060496l).
